molecular target: Tyrosine-protein kinase BTK (Homo sapiens); experiment: Inhibition of human recombinant full length N-terminal His tagged BTK expressed in baculovirus infected Sf9 cells using poly (Glu,Tyr) 4:1 as substrate measured after 60 mins in presence of ATP by ADP-Glo kinase assay
property.name: IC50 (nM)

(P) CN1CCN(c2ccc(Nc3nc(-c4cccc(NC(=O)c5ccc(C(F)(F)F)cn5)c4)sc3C(N)=O)cc2)CC1
(Q) CN(C)c1ccc(C(=O)Nc2cccc(-c3nc(Nc4ccc(N5CCOCC5)cc4)c(C(=O)O)s3)c2)cc1
(R) CN1CCN(c2ccc(Nc3nc(-c4cccc(NC(=O)c5ccccc5)c4)sc3C(N)=O)cc2)CC1
(S) CN1CCN(c2ccc(Nc3nc(-c4cccc(NC(=O)c5ccco5)c4)sc3C(N)=O)cc2)CC1
Exercise: // ascending sort on IC50 for the entries above Sort and list the labels as requested.
Solution: S, R, P, Q

(I) NC(=O)c1sc(-c2cccc(NC(=O)c3ccc(F)cc3)c2)nc1Nc1ccc(C(=O)N2CCOCC2)cc1
(II) CCOC(=O)c1sc(-c2cccc(NC(=O)c3cccc(F)c3)c2)nc1Nc1ccc(N2CCN(C)CC2)cc1
(III) CCOC(=O)c1sc(-c2cccc(NC(=O)c3ccccc3)c2)nc1Nc1ccc(N2CCN(C)CC2)cc1
(IV) O=C(Nc1cccc(-c2nc(Nc3ccc(N4CCOCC4)cc3)c(C(=O)O)s2)c1)c1ccc(F)cc1
Exercise: Put the entries in order of IC50, starting with the largest number. Answer format: list of labels, ordered as asked.
Solution: III, II, IV, I

(a) NC(=O)c1sc(-c2cccc(NC(=O)c3ccc(C(F)(F)F)cc3)c2)nc1Nc1ccc(C(=O)N2CCOCC2)cc1
(b) CNC(=O)c1sc(-c2cccc(NC(=O)c3ccc(C(C)(C)C)cc3)c2)nc1Nc1ccc(N2CCOCC2)cc1
Exercise: Returns: the label, a or b , whose recorded IC50 is the lower number. Your answer should be the label attached to the chosen record.
Solution: a

====

target: Tyrosine-protein kinase BTK (Homo sapiens, UniProt Q06187, C481S); assay: Inhibition of human recombinant full length N-terminal His tagged BTK C481S mutant expressed in baculovirus infected Sf9 cells using poly (Glu,Tyr) 4:1 as substrate measured after 60 mins in presence of ATP by ADP-Glo kinase assay
Sequence (Q06187 2-659 C481S limits assumed): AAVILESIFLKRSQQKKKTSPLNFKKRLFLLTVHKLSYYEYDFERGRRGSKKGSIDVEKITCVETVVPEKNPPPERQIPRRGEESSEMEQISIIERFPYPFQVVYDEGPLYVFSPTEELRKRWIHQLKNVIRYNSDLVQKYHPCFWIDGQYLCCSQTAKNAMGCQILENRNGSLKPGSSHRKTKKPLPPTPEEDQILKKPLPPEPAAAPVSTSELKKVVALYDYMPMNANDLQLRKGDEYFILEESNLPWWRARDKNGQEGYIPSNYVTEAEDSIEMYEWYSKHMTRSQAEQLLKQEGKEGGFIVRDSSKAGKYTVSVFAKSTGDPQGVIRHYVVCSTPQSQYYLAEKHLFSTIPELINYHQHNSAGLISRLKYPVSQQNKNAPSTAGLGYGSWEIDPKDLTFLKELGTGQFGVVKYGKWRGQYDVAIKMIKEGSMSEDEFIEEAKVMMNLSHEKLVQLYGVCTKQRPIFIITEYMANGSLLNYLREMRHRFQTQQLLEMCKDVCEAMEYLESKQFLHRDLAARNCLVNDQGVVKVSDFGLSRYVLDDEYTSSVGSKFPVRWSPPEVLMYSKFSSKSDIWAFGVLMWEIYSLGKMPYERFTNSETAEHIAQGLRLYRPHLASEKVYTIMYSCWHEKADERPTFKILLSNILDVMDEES
property.name: IC50 (nM)
Quick reminder: number only, in nM, skip the unit.

Exercise: Lab note: need IC50 for `CN1CCN(c2ccc(Nc3nc(-c4cccc(NC(=O)c5ccc(F)c(Cl)c5)c4)sc3C(N)=O)cc2)CC1` on Tyrosine-protein kinase BTK (Homo sapiens, UniProt Q06187, C481S), anyone have it?
Solution: 61

====

target: Tyrosine-protein kinase BTK (Homo sapiens); test: Inhibition of human recombinant full length N-terminal His tagged BTK expressed in baculovirus infected Sf9 cells using poly (Glu,Tyr) 4:1 as substrate measured after 60 mins in presence of ATP by ADP-Glo kinase assay
pIC50: −log10 of the molar value.
property.name: pIC50

Worked examples follow.
| smi | tested.system | property.name | experimental.value |
| --- | --- | --- | --- |
| CN1CCN(c2ccc(Nc3nc(-c4cccc(NC(=O)c5ccc(C(F)(F)F)cc5)c4)sc3C(N)=O)cc2)CC1 | Tyrosine-protein kinase BTK (Homo sapiens) | pIC50 | 6.69 |
| CN1CCN(c2ccc(Nc3nc(-c4cccc(NC(=O)c5ccc(Cl)cc5)c4)sc3C(N)=O)cc2)CC1 | Tyrosine-protein kinase BTK (Homo sapiens) | pIC50 | 6.21 |
| CCOC(=O)c1sc(-c2cccc(NC(=O)c3ccc(C(F)(F)F)cc3)c2)nc1Nc1ccc(N2CCOCC2)cc1 | Tyrosine-protein kinase BTK (Homo sapiens) | pIC50 | 5.62 |

(I) CN1CCN(c2ccc(Nc3nc(-c4cccc(NC(=O)c5ccc(F)cc5)c4)sc3C(N)=O)cc2)CC1
(II) NC(=O)c1sc(-c2cccc(NC(=O)c3ccc(C(F)(F)F)cc3)c2)nc1Nc1ccc(N2CCOCC2)cc1
Exercise: Of I and II , which carries the smaller reported pIC50 figure? Pick one and reply with its label.
Solution: II

(A) CN1CCN(c2ccc(Nc3nc(-c4cccc(NC(=O)c5ccccc5F)c4)sc3C(=O)O)cc2)CC1
(B) CC(C)(C)c1ccc(C(=O)Nc2cccc(-c3nc(Nc4ccc(C(=O)N5CCOCC5)cc4)c(C(N)=O)s3)c2)cc1
Exercise: Which value of pIC50 is smaller, the one for A or the one for B ? // respond with label for picked entry
Solution: A
